This collection of values is drawn from paper PMC4814904.

- Target Or System: ThnA4 (ThnA4-His6), NAD(P)H-dependent ferredoxin reductase of tetralin dioxygenase (Sphingopyxis macrogoltabida, UniProt Q8GJE9)
- Construct: full length, 339 residues, C-terminal His6 (pET23b, plasmid pMPO784), E. coli NCM631 host; plant-type [2Fe-2S]; FAD-reconstituted
- Sequence (Q8GJE9 entry or part of it): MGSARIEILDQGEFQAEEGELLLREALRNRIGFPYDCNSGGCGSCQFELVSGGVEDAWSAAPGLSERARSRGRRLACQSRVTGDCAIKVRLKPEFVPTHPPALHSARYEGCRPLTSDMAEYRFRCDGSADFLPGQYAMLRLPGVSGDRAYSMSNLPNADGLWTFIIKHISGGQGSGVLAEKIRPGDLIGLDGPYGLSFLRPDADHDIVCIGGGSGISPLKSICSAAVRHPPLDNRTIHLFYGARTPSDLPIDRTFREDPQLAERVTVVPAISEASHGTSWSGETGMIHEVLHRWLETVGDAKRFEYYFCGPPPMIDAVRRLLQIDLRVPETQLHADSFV
- Assay Comment: stopped-flow pre-steady-state reduction of ThnA4ox, fit of kA→B
- Assay type: biochemical
- Experimental Parameters: oxidized enzyme; potassium phosphate 50 mM pH 7.4, NaCl 10 mM, glycerine 5%, 15 °C; hydride donor; read-out: Kd^NADPH
Measured Parameter: Kd (µM)

INSERT INTO results (compound, unit_spec, numeric_readout) VALUES
  ('NC(=O)C1=CN([C@@H]2O[C@H](COP(=O)(O)OP(=O)(O)OC[C@H]3O[C@@H](n4cnc5c(N)ncnc54)[C@H](OP(=O)(O)O)[C@@H]3O)[C@@H](O)[C@H]2O)C=CC1 [NADPH]', 'µM', 54);
